System: U1A M51A (UniProt P09012 10-89, M51A)
Sequence (P09012 10-89 M51A): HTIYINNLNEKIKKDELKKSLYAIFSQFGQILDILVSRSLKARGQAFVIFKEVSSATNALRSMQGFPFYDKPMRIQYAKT
Assay name: fluorescence polarization
Kd overview
Report the value in µM with no unit label.

GGCAGATCTGAGCCTGGGAGCTCTCTGCC (structured_DNA) [TAR DNA] | 179

Then this binder:
Q: GET /values?readout=Kd&item= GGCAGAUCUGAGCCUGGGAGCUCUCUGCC (structured_RNA) [TAR RNA]
Result: 4.9
